Measured Drug uptake accompanies every entry in the list below.
tested on: Spleen; experiment: Biodistribution in ddY mouse spleen at 2 uCi, iv after 60 mins; format: ADME, organism-based; conditions: in vivo, 1 h
reportedProperty: Drug uptake (% ID/g)

- COc1ccc(-c2cc(=O)c3cc([125I])ccc3o2)cc1: 3.67
- CNc1ccc(-c2cc(=O)c3cc([125I])ccc3o2)cc1: 1.52
- CN(C)c1ccc(-c2cc(=O)c3cc([125I])ccc3o2)cc1: 1.18
- O=c1cc(-c2ccc(O)cc2)oc2ccc([125I])cc12: 0.17

###

system: Blood; experiment: Biodistribution in ddY mouse blood at 2 uCi, iv after 10 mins; assay type: ADME, organism-based; conditions: in vivo
Measured Drug uptake accompanies every entry in the list below.
reportedProperty: Drug uptake (% ID/g)

• CNc1ccc(-c2cc(=O)c3cc([125I])ccc3o2)cc1 = 1.39
• O=c1cc(-c2ccc(O)cc2)oc2ccc([125I])cc12 = 1.58
• CN(C)c1ccc(-c2cc(=O)c3cc([125I])ccc3o2)cc1 = 1.07
• COc1ccc(-c2cc(=O)c3cc([125I])ccc3o2)cc1 = 1.19

###

tested on: Stomach; test: Biodistribution per organ in ddY mouse stomach at 2 uCi, iv after 30 mins; format: ADME, organism-based; conditions: in vivo, 0.5 h
reportedProperty: Drug uptake (% ID/organ)

• O=c1cc(-c2ccc(O)cc2)oc2ccc([125I])cc12 = 1.56
• CNc1ccc(-c2cc(=O)c3cc([125I])ccc3o2)cc1 = 1.44
• COc1ccc(-c2cc(=O)c3cc([125I])ccc3o2)cc1 = 0.55
• CN(C)c1ccc(-c2cc(=O)c3cc([125I])ccc3o2)cc1 = 1.17

###

test system: Brain; assay: Biodistribution in ddY mouse brain at 2 uCi, iv after 2 mins; type: ADME, organism-based; conditions: in vivo
Measured Drug uptake accompanies every entry in the list below.
reportedProperty: Drug uptake (% ID/g)

• O=c1cc(-c2ccc(O)cc2)oc2ccc([125I])cc12 = 3.31
• CN(C)c1ccc(-c2cc(=O)c3cc([125I])ccc3o2)cc1 = 3.22
• CNc1ccc(-c2cc(=O)c3cc([125I])ccc3o2)cc1 = 4.12
• COc1ccc(-c2cc(=O)c3cc([125I])ccc3o2)cc1 = 4

###

system: Intestine; experiment: Biodistribution in ddY mouse intestine at 2 uCi, iv after 2 mins; format: ADME, organism-based; conditions: in vivo
Measured Drug uptake accompanies every entry in the list below.
reportedProperty: Drug uptake (% ID/g)

• O=c1cc(-c2ccc(O)cc2)oc2ccc([125I])cc12 = 3.12
• CNc1ccc(-c2cc(=O)c3cc([125I])ccc3o2)cc1 = 3.1
• CN(C)c1ccc(-c2cc(=O)c3cc([125I])ccc3o2)cc1 = 2.24
• COc1ccc(-c2cc(=O)c3cc([125I])ccc3o2)cc1 = 3.52

###

tested on: Stomach; test: Biodistribution per organ in ddY mouse stomach at 2 uCi, iv after 2 mins; format: ADME, organism-based; conditions: in vivo
Measured Drug uptake accompanies every entry in the list below.
reportedProperty: Drug uptake (% ID/organ)

• COc1ccc(-c2cc(=O)c3cc([125I])ccc3o2)cc1 = 0.68
• CN(C)c1ccc(-c2cc(=O)c3cc([125I])ccc3o2)cc1 = 0.73
• CNc1ccc(-c2cc(=O)c3cc([125I])ccc3o2)cc1 = 0.78
• O=c1cc(-c2ccc(O)cc2)oc2ccc([125I])cc12 = 0.89
